biological target: Gamma secretase (Homo sapiens, UniProt P49768); construct: endogenous in cells; host or cells: Salt-washed membranes of 293 T-REx cells, clone pTRE.15; Only the substrate SPC99-Lon is transfected (pcDNA4/TO, tetracycline-induced); test: Gamma secretase activity assay on membranes of 293 cells expressing SPC99-Lon (Aβ 40 / Aβ 42 measured by ECL immunoassay); assay type: biochemical; details: membrane γ-secretase assay; range stated for a group of examples; read-out: IC50 within the range stated, gamma secretase assay
Reported Endpoint: IC50

Example entries and their recorded answers appear below.
Chemical Structure | IC50
O=C(OC[C@H]1CCC[C@@H](c2ccccc2F)N1S(=O)(=O)c1ccc(Cl)cc1)N1CCC(N2CCCCC2)CC1 | 0.2 to 15 nM
NC(=O)C1(N2CCCCC2)CCN(C(=O)OC[C@H]2CCC[C@@H](c3cc(F)cc(F)c3)N2S(=O)(=O)c2ccc(Cl)cc2)CC1 | 0.2 to 15 nM

For `O=C(OC1([C@H]2CCC[C@@H](c3ccc(F)cc3F)N2S(=O)(=O)c2ccc(Cl)cc2)CC1)N1CCC(N2CCCCC2)CC1` , write its IC50. 0.2 to 15 nM
